B1: library; numbered along this chain (parent)
chain: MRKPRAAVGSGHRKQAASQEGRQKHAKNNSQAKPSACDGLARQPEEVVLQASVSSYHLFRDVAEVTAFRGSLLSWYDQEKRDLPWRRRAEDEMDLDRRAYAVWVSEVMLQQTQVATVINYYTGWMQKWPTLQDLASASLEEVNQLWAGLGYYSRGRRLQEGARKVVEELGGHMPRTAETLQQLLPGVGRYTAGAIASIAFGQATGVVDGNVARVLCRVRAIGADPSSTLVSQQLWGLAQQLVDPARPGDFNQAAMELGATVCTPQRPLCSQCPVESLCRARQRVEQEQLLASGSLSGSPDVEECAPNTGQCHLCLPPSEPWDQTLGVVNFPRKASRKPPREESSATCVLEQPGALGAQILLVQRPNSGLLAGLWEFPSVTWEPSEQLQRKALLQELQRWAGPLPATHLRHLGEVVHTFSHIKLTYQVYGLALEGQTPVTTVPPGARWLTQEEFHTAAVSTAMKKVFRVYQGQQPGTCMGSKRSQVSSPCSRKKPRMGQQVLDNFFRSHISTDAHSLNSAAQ

Variants of: B1
Assay overview: 8OG:A repair function score (normalized; synonymous = 0, nonsense = -1) (normalized log-likelihood score); higher = more repair activity (WT-like);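 also: cells sorted at 72 h after reporter transfection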
Condition set: with 8OG:A DNA repair reporter (GFP) in HEK-293 MUTYH KO cells
Metric: 8OG:A repair function score
Lab note: record just the number, no unit beside it.

IN: Requested field: 8OG:A repair function score. Item: K463M
OUT: -0.0542

Values compiled from the supplement of paper PMC11908140.
